targetOfAssay: JNK3 (Homo sapiens)
assayMethodText: JNK3 kinase DELFIA (phosphorylation of biotinylated GST-ATF2)
assaySetup: final ATP 2 uM
propertyName: IC50

As a guide, the following entries are already answered.
Cc1nc2ccc(CNC(=O)c3cccn4c(C(=O)N[C@H](CO)CC(C)C)c(-c5ccccn5)nc34)cc2n1C = 9 to 50 nM
CC(C)(C)[C@@H](CO)NC(=O)c1c(-c2ccsc2)nc2c(C(=O)NCc3ccc4nc(N)sc4c3)cccn12 = 9 to 50 nM
CC(C)C[C@@H](CO)NC(=O)c1c(-c2ccsc2)nc2c(C(=O)NCC3CCN(C(=O)c4cccnc4)CC3)cccn12 = 209 to 479 nM
CC[C@@H](CO)NC(=O)c1c(-c2ccsc2)nc2c(C(=O)NCc3ccc(Cl)nc3)cccn12 = 118 to 174 nM
CC(C)C[C@@H](CO)NC(=O)c1c(-c2cccs2)nc2c(C(=O)NCc3ccc4nc(N)sc4c3)cccn12 = 9 to 50 nM

// next item, IC50 requested
Data request: Return reported IC50; argument: C[C@@H](CO)NC(=O)c1c(-c2ccsc2)nc2c(C(=O)NCc3ccc4nc(N)sc4c3)cccn12
Data returned: 9 to 50 nM

* * *

targetOfAssay: JNK2 (Homo sapiens, UniProt P45984)
Sequence (P45984 whole entry, species assumed): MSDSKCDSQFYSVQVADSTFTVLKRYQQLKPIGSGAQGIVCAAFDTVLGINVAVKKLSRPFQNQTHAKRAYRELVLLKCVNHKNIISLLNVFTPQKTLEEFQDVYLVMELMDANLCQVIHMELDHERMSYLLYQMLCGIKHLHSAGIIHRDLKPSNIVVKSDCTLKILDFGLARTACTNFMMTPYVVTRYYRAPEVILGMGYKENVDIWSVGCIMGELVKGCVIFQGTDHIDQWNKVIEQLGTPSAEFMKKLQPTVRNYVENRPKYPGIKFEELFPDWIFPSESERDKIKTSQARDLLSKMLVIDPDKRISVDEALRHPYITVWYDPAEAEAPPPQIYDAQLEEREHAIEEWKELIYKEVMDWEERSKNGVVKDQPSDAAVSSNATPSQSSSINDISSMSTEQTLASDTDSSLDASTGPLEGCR
assayMethodText: JNK2 kinase DELFIA (phosphorylation of biotinylated GST-ATF2)
assaySetup: final ATP 4 uM, reported as range for a group
pIC50: −log10 of the molar value.
propertyName: pIC50

The following compounds have reported results that may help.
CC(C)C[C@@H](CO)NC(=O)c1c(-c2ccsc2)nc2c(C(=O)NCc3ccc(N)nc3)cccn12 [Compound 327] = 7.34 to 8.40
CC(C)C[C@@H](CO)NC(=O)c1c(-c2ccc(F)cc2)nc2c(C(=O)NCc3ccc4nc(N)sc4c3)cccn12 [Compound 452] = 7.03 to 7.28
Cc1cccc(-n2cc(CNC(=O)c3cccn4c(C(=O)N[C@H](CO)CC(C)C)c(-c5ccsc5)nc34)cn2)c1 [Compound 218] = 7.34 to 8.40

Data request: Which pIC50 value is on record for CC[C@@H](CO)NC(=O)c1c(-c2ccsc2)nc2c(C(=O)NCc3ccc(-n4nccc4C(C)C)cc3)cccn12 [Compound 178] ?
Data returned: 6.18 to 6.70

* * *

targetOfAssay: JNK2 (Homo sapiens, UniProt P45984)
assayMethodText: JNK2 kinase DELFIA (phosphorylation of biotinylated GST-ATF2)
assaySetup: final ATP 4 uM, reported as range for a group
pIC50: −log10 of the molar value.
Known pIC50 of a selection of molecules

Guide cases for pIC50, answers given:
CC(C)(C)[C@@H](CO)NC(=O)c1c(-c2ccsc2)nc2c(C(=O)NCc3ccc4nc(N)sc4c3)cccn12 [Compound 17] = 7.34 to 8.40
C[C@H](CO)NC(=O)c1c(-c2ccsc2)nc2c(C(=O)NCc3ccc4nc(N)sc4c3)cccn12 [Compound 23] = 6.76 to 6.97
CC(C)C[C@@H](CO)NC(=O)c1c(-c2ccsc2)nc2c(C(=O)NCc3ccc(N4CCOCC4)nc3)cccn12 [Compound 300] = 7.34 to 8.40
CC(C)C[C@H](CO)NC(=O)c1c(-c2ccsc2)nc2c(C(=O)NCc3ccc(S(C)(=O)=O)cc3)cccn12 [Compound 205] = 7.03 to 7.28
CC(C)C[C@@H](CO)NC(=O)c1c(-c2ccsc2)nc2c(C(=O)NCc3cnn(-c4ccccc4)c3)cccn12 [Compound 216] = 7.34 to 8.40

Data request: Any idea what its pIC50 is? The molecule is C[C@@H](NC(=O)c1c(-c2ccsc2)nc2c(C(=O)NCc3ccc4nc(N)sc4c3)cccn12)[C@@H](O)c1ccccc1 [Compound 62]
Data returned: 6.76 to 6.97

Data request: Which value of pIC50 has been reported for CC(C)C[C@@H](CO)NC(=O)c1c(-c2ccsc2)nc2c(C(=O)NCc3ccc(-c4ccccn4)s3)cccn12 [Compound 215] in the records?
Data returned: 7.03 to 7.28

Data request: Which pIC50 value belongs to C[C@@H](NC(=O)c1c(-c2ccsc2)nc2c(C(=O)NCc3ccc4nc(N)sc4c3)cccn12)c1ccccc1 [Compound 42] ?
Data returned: 7.03 to 7.28

* * *

As shown below, each of these compounds has a reported IC50 value.
targetOfAssay: JNK3 (Homo sapiens, UniProt P53779)
Sequence (P53779 whole entry, species assumed): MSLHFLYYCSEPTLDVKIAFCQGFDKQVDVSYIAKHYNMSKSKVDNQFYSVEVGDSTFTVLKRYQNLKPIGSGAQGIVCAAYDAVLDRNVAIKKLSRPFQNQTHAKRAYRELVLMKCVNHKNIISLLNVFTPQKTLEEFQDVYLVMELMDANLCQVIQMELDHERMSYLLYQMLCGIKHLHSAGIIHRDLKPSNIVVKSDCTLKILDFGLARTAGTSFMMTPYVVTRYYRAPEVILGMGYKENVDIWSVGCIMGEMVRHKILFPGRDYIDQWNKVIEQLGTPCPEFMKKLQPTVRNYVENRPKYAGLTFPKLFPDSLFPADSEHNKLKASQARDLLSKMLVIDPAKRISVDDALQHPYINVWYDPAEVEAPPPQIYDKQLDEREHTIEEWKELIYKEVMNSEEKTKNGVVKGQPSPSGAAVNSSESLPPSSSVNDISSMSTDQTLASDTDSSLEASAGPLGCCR
assayMethodText: JNK3 kinase DELFIA (phosphorylation of biotinylated GST-ATF2)
assaySetup: final ATP 2 uM

CC(C)C[C@@H](CO)NC(=O)c1c(-c2ccsc2)nc2c(C(=O)NCc3cnn(-c4ccccc4)c3)cccn12 [Compound 216] = 0.009 to 0.05 µM
Cc1cc(C(=O)NCc2ccc3nc(N)sc3c2)c2nc(-c3ccsc3)c(C(=O)N[C@@H](CO)CC(C)C)n2c1 [Compound 350] = 16.1 µM
CC(C)C[C@@H](CO)NC(=O)c1c(-c2cc(F)cc(F)c2)nc2c(C(=O)NCc3ccc4nc(N)sc4c3)cccn12 [Compound 544] = 0.009 to 0.05 µM
CC[C@@H](CO)NC(=O)c1c(-c2ccsc2)nc2c(C(=O)NCc3ccc4nc(N)sc4c3)cccn12 [Compound 13] = 0.054 to 0.098 µM
Cc1nc2ccc(CNC(=O)c3cccn4c(C(=O)N[C@H](CO)CC(C)C)c(C)nc34)cc2[nH]1 [Compound 599] = 0.009 to 0.05 µM

Data request: Report IC50 for CNc1nc2ccc(CNC(=O)c3cccn4c(C(=O)N[C@H](CO)CC(C)C)c(-c5ccsc5)nc34)cc2s1 [Compound 155] please.
Data returned: 0.009 to 0.05 µM

Data request: Endpoint output: IC50 of Nc1nc2ccc(CNC(=O)c3cccn4c(C(=O)NCC5(O)CCCCC5)c(-c5ccsc5)nc34)cc2s1 [Compound 15] . Value?
Data returned: 0.118 to 0.174 µM

* * *

targetOfAssay: JNK2 (Homo sapiens, UniProt P45984)
assayMethodText: JNK2 kinase DELFIA (phosphorylation of biotinylated GST-ATF2)
assaySetup: final ATP 4 uM, reported as range for a group
pIC50: −log10 of the molar value.
propertyName: pIC50

CC(C)C[C@@H](CO)NC(=O)c1c(-c2ccsc2)nc2c(C(=O)NCc3ccc4ncccc4c3)cccn12 [Compound 115] = 7.34 to 8.40

Data request: Param item = Cc1ccn(-c2ccc(CNC(=O)c3cccn4c(C(=O)N[C@H](CO)CC(C)C)c(-c5ccsc5)nc34)cn2)n1 [Compound 323] ; retrieve measured pIC50.
Data returned: 7.34 to 8.40

Data request: // pIC50 lookup, key: Cc1nc2ccc(CNC(=O)c3cccn4c(C(=O)N[C@H](CO)CC(C)C)c(-c5ccccn5)nc34)cc2[nH]1 [Compound 479]
Data returned: 7.34 to 8.40

Data request: # input molecule: Cc1cc(C(=O)NCc2ccc3nc(N)sc3c2)c2nc(C)c(C(=O)N[C@H](CO)CC(C)C)n2c1 [Compound 351] ; wanted: its pIC50
Data returned: 4.94 to 5.97

* * *

targetOfAssay: JNK3 (Homo sapiens, UniProt P53779)
assayMethodText: JNK3 kinase DELFIA (phosphorylation of biotinylated GST-ATF2)
assaySetup: final ATP 2 uM
propertyName: IC50

Study these solved cases before continuing.
CC(C)C[C@@H](CO)NC(=O)c1c(-c2ccsc2)nc2c(C(=O)NCc3ccnc(N4CCCC4)c3)cccn12 = 9 to 50 nM
Cc1cccc(-n2cc(CNC(=O)c3cccn4c(C(=O)N[C@H](CO)CC(C)C)cnc34)cn2)c1 = 9 to 50 nM
CC(C)C[C@@H](CO)NC(=O)c1c(-c2ccsc2)nc2c(C(=O)NCc3ccc(N4CCCC4=O)cc3)cccn12 = 54 to 98 nM

With those in mind, consider the next compound.
Data request: Need IC50, item CCc1nc2c(C(=O)NCc3ccc4nc(N)sc4c3)cccn2c1C(=O)N[C@H](CO)CC(C)C
Data returned: 9 to 50 nM

* * *

targetOfAssay: JNK3 (Homo sapiens)
assayMethodText: JNK3 kinase DELFIA (phosphorylation of biotinylated GST-ATF2)
assaySetup: final ATP 2 uM
pIC50: −log10 of the molar value.
Measured pIC50, listed per entry for reference.

Use the examples below as a reference point.
CC(C)C[C@@H](CO)NC(=O)c1c(-c2ccc(F)cc2)nc2c(C(=O)NCc3ccc4nc(N)sc4c3)cccn12 = 7.01 to 7.27
C[C@@H](NC(=O)c1c(-c2ccsc2)nc2c(C(=O)NCc3ccc4nc(N)sc4c3)cccn12)[C@@H](O)c1ccccc1 = 7.01 to 7.27
CC(C)C[C@@H](CO)NC(=O)c1c(-c2ccsc2)nc2c(C(=O)NCc3ccc(N4CCN(C)CC4)nc3)cccn12 = 7.30 to 8.05
CC(C)C[C@@H](CO)NC(=O)c1c(-c2ccccn2)nc2c(C(=O)NCc3ccc4nc(N)sc4c3)cccn12 = 7.30 to 8.05

Data request: May I ask what pIC50 has been recorded for Cc1nc2ccc(CNC(=O)c3cccn4c(C(=O)N[C@H](CO)CC(C)C)c(-c5ccsc5)nc34)cc2s1 ?
Data returned: 7.30 to 8.05
